Hello, the source for this data is PubChem BioAssay (EPA / NIEHS), in case you need it.

# Read-out: Cytochrome P450 (CYP1A2), CYP1A2 (gene 1544)
# Protocol text: LTEA_HepaRG_CYP1A2: Life Technologies and Expression Analysis (LTEA) Assay for Cytochrome P450 (CYP1A2) using HepaRG (AID 2283479)
# Condition: mRNA level, 48 h; actives raise or lower the signal
Active and inactive are the calls of the source. How the source made its calls: active means hit-call score of the fitted dose curve at least 0.9, where 1 is the maximum; inactive means score below 0.9.
Give your call using only these classes: label 1 = active, label 0 = inactive

Consider the worked cases shown below.
Exam item: What did the test return for CC(C)NCC(O)c1ccc(O)c(O)c1 (centres undefined) ?
Marked response: label 1

Exam item: What did the test return for CCCCC(CC)CO (centres undefined) ?
Marked response: label 1

Exam item: What did the test return for CC1(C)C(=O)NC(=O)N1CO ?
Marked response: label 0

Exam item: What did the test return for CCCCC(CC)COP(=O)(OCC(CC)CCCC)OCC(CC)CCCC (centres undefined) ?
Marked response: label 1

Exam item: What did the test return for CCCC(=O)O ?
Marked response: label 0

Exam item: What did the test return for Cc1ccc(C(C)(C)C)c(O)c1 ?
Marked response: label 1

Exam item: What did the test return for O=C(N[C@@H](c1ccccc1)[C@@H]1CCCCN1)c1cccc(C(F)(F)F)c1Cl ?
Marked response: label 0

Exam item: What did the test return for CCCCCCCCCCCCCCCCO ?
Marked response: label 0

Others:
Exam item: What did the test return for O=C(O)c1cccnc1 ?
Marked response: label 0

Exam item: What did the test return for O=C(O)c1[nH]n(-c2ccc(S(=O)(=O)O)cc2)c(=O)c1N=Nc1ccc(S(=O)(=O)O)cc1 ?
Marked response: label 1

Exam item: What did the test return for C/C=C/C=C/C(=O)O ?
Marked response: label 0

Exam item: What did the test return for CN(C)CCCN(C)CCCN(C)C ?
Marked response: label 0

Exam item: What did the test return for CCCCCCCCCC[N+](C)(C)[O-] ?
Marked response: label 0

Exam item: What did the test return for NCCOCCOCCN ?
Marked response: label 0
